System: M14 melanoma
Experiment: NCI-60 one-dose screen, 48 h (100 = growth as untreated, 0 = no growth, -100 = all killed)
Details: 10 µM unless noted
About 83,000 compounds went through this panel and 20% of them were active in at least one assay; those are over-represented in the sample as a whole.
Listing of entries alongside the reported growth.
State the answer as a number, implicitly in %.

Example results:
COMPOUND	growth / %
Cc1ccc(C(=O)N/N=C/c2cccc(Oc3ccccc3)c2)cn1	50
CC(=O)OC[C@H]1OC(Sc2sc(C(=O)c3ccc(Br)cc3)c(N)c2-c2nc3ccccc3s2)[C@H](OC(C)=O)[C@@H](OC(C)=O)[C@H]1OC(C)=O (some centres undefined)	96.1
CC/C=C\C[C@@H]1C/C=C2/C(=O)C=C[C@H]2C/C=C\CCCC(=O)O1	-48.8
COc1nc2ccc(C)cc2cc1-c1nc2c(cnn2-c2ccccc2)c(=O)[nH]1	71
Cc1cccc2c1S/C(=C/c1ccc([N+](=O)[O-])cc1)C2=O	98.2
COc1cc(C(=O)c2cc(C)c3[nH]c4ccc(C)cc4c3c2C)cc(OC)c1OC	23.7
Cc1cc(Cl)ccc1NS(=O)(=O)c1ccc(-c2cnc(C3CC3)o2)cc1	10.2
CCN(CC)Cc1cc(Nc2c3ccc(Cl)cc3nc3ccc(OC)cc23)ccc1O	-67.5

# next compound below
Find the recorded growth belonging to `C[C@H](C(=O)Nc1ccc(S(N)(=O)=O)cc1)S(=O)(=O)c1ccccc1` and report it.
104
